The origin of these recorded values is patent US8512739B2.

System: Enzyme from the LM NRRL-B-21297 strain
ASSAY SUMMARY: Suitability of acceptors: oligosaccharide formation from sucrose and acceptor
Format: biochemical, Leuconostoc mesenteroides
MEASUREMENT PARAMETERS: 0.4% by weight each of sucrose and acceptor, pH 6, 2 hours at 37° C.; DP3-DP7 minus starting material
Exercise: state measured Weight Ratio of Oligosaccharide to Fructose for each of the compounds provided.

OC[C@H]1O[C@H](OC[C@H]2O[C@H](O[C@H]3[C@H](O)[C@@H](O)C(O)O[C@@H]3CO)[C@H](O)[C@@H](O)[C@@H]2O)[C@H](O)[C@@H](O)[C@@H]1O (stereo partly shown) [Panose]
1.56
OC[C@H]1O[C@H](O[C@H]2[C@H](O)[C@@H](O)C(O)O[C@@H]2CO)[C@H](O)[C@@H](O)[C@@H]1O (mixture of isomers) [Maltose, reference compound]
2.02
OC[C@H]1O[C@H](OC[C@H]2OC(O)[C@H](O)[C@@H](O)[C@@H]2O)[C@H](O)[C@@H](O)[C@@H]1O (stereo partly shown) [Isomaltose]
0.93

Next compound, Weight Ratio of Oligosaccharide to Fructose to be filled in.
query: Weight Ratio of Oligosaccharide to Fructose lookup needed for OC[C@H]1O[C@H](O[C@H]2[C@H](O)[C@@H](O)[C@@H](O[C@H]3[C@H](O)[C@@H](O)[C@@H](O[C@H]4[C@H](O)[C@@H](O)C(O)O[C@@H]4CO)O[C@@H]3CO)O[C@@H]2CO)[C@H](O)[C@@H](O)[C@@H]1O (stereo partly shown) [Maltotetrose] , thanks.
result: 0.38
